Values from PubChem BioAssay

Each record here notes measured inhibition.
assay: polyglutamine-triggered caspase-3 activation inhibitors, cell-based (AID 1583); details: polyglutamine-induced caspase-3 activation, cell assay; stronger effect = higher value;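 tested at 10 µM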
Respond numerically; units are % and should not be typed.

Record excerpt, results attached:
{"Compound": "CCCCCc1cc(O)c2c(c1)OC(C)(C)C1CCC(C)=CC21 (centres undefined)", "inhibition, %": 5.35}
{"Compound": "CCCCCc1cc(O)c2c(c1)OC(C)(C)c1ccc(C)cc1-2", "inhibition, %": 29.1}
{"Compound": "C[N+](C)(C)CC#CCN1CCCC1=O", "inhibition, %": 23.8}

From here, focus on the item given below.
Prompt: Return inhibition for the following compound: "C=C[C@H]1CN2CC[C@H]1C[C@H]2[C@H](O)c1ccnc2ccccc12"
Response: 21
